// data source = patent US20080139558A1

- System: human iNOS (Homo sapiens)
- Assay explanation: DAN assay of nitric oxide production (hiNOS)
- Assay setup: enzyme expressed in HEK293 cells transiently transfected with human iNOS
Observable: EC50

Below, each entry is followed by its recorded EC50 result.
• CC(C)S(=O)(=O)N(Cc1cc(=O)[nH]c2c(F)c(F)ccc12)c1cccc(Cl)c1 = ≤ 5 µM
• Cc1ncsc1C(=O)N(Cc1cc(=O)[nH]c2cc(F)c(F)cc12)c1cccc(Cl)c1 = ≤ 5 µM
• O=C(c1cc(=O)[nH]c2c(F)cccc12)N(Cc1cscn1)c1cccc(Cl)c1 = > 5 µM
• Cn1cncc1C(=O)N(Cc1cc(=O)[nH]c2c(F)cccc12)c1cccc(Cl)c1 = > 5 µM
• O=C(c1ccoc1)N(Cc1cc(=O)[nH]c2ccccc12)c1ccccc1 = > 5 µM

What EC50 value was documented for this molecule, CN(C)c1nc2ccccc2n1Cc1cc(=O)[nH]c2c(F)c(F)ccc12 ? > 5 µM

What EC50 value was documented for this molecule, Cc1ncsc1-c1nc2ccccc2n1Cc1cc(=O)[nH]c2c(F)cccc12 ? > 5 µM

What EC50 value was documented for this molecule, Cc1ccncc1-c1nc2ccccc2n1Cc1cc(=O)[nH]c2c(F)c(F)ccc12 ? > 5 µM

----------
- System: human iNOS (Homo sapiens)
- Assay explanation: DAN assay of nitric oxide production (hiNOS)
- Assay setup: enzyme expressed in HEK293 cells transiently transfected with human iNOS
- Description: The source of nitric oxide synthase (NOS) enzyme can be generated in several ways including induction of endogenous iNOS using cytokines and/or lipopolysaccharide (LPS) in various cell types known in the art. […] The level of nitrate or nitrite in the specimen can be quantified by any method known in the art which provides adequate sensitivity and reproducibility. […]
pEC50: −log10 of the molar value.
Observable: pEC50

Below, each entry is followed by its recorded pEC50 result.
- O=C(c1ccncc1)N(Cc1cc(=O)[nH]c2c(F)cccc12)c1cccc(Cl)c1: < 5.30
- CN(Cc1cc(=O)[nH]c2ccccc12)c1ccccc1: ≥ 5.30
- Cn1nnc(C(=O)N(Cc2cc(=O)[nH]c3c(F)c(F)ccc23)c2cccc(Cl)c2)n1: ≥ 5.30

What pEC50 value was documented for this molecule, O=c1cc(Cn2c(C3CCCO3)nc3ccccc32)c2ccc(F)c(F)c2[nH]1 (racemic) ? ≥ 5.30

What pEC50 value was documented for this molecule, Cc1cccc(C(=O)N(Cc2cc(=O)[nH]c3c(F)cccc23)c2cccc(Cl)c2)c1 ? < 5.30

What pEC50 value was documented for this molecule, N#Cc1cccc(C(=O)N(Cc2cc(=O)[nH]c3c(F)cccc23)c2cccc(Cl)c2)c1 ? < 5.30

What pEC50 value was documented for this molecule, Cc1cccc2c1nc(C(C)C)n2Cc1cc(=O)[nH]c2c(F)c(F)ccc12 ? ≥ 5.30

What pEC50 value was documented for this molecule, Cc1ncsc1C(=O)N(Cc1cc(=O)[nH]c2c(F)cccc12)c1ccc(F)c(F)c1 ? ≥ 5.30

What pEC50 value was documented for this molecule, Cc1ncsc1C(=O)N(Cc1cc(=O)[nH]c2c(F)c(F)ccc12)c1ccccn1 ? < 5.30

What pEC50 value was documented for this molecule, O=c1cc(Cn2c(-n3ccnc3)nc3ccccc32)c2ccc(F)c(F)c2[nH]1 ? ≥ 5.30

What pEC50 value was documented for this molecule, Cc1ncsc1C(=O)N(Cc1cc(=O)[nH]c2c(F)c(F)ccc12)c1ccc(N2CCCCC2)cc1 ? < 5.30

What pEC50 value was documented for this molecule, Cc1ncsc1C(=O)N(Cc1cc2cccc(F)c2[nH]c1=O)c1ccc(N2CCCCC2)cc1 ? < 5.30

What pEC50 value was documented for this molecule, N#Cc1ccccc1C(=O)N(Cc1cc(=O)[nH]c2c(F)cccc12)c1cccc(Cl)c1 ? < 5.30

What pEC50 value was documented for this molecule, Cc1ncsc1C(=O)N(Cc1cc(=O)[nH]c2c(F)c(F)ccc12)c1cccc2ccccc12 ? ≥ 5.30

What pEC50 value was documented for this molecule, O=C(c1ccncc1)N(Cc1cc(=O)[nH]c2ccccc12)c1ccccc1 ? < 5.30

What pEC50 value was documented for this molecule, CC(=O)N(Cc1cc(=O)[nH]c2ccccc12)c1ccccc1 ? < 5.30

What pEC50 value was documented for this molecule, CSc1nc2ccccc2n1Cc1cc(=O)[nH]c2c(F)c(F)ccc12 ? ≥ 5.30

What pEC50 value was documented for this molecule, O=C(c1cnccn1)N(Cc1cc(=O)[nH]c2c(F)cccc12)c1cccc(Cl)c1 ? < 5.30

What pEC50 value was documented for this molecule, Cc1ccc2c(CN(C(=O)c3ccco3)c3ccccc3)cc(=O)[nH]c2c1 ? ≥ 5.30

What pEC50 value was documented for this molecule, Cc1ccncc1C(=O)N(Cc1cc(=O)[nH]c2c(F)cccc12)c1cccc(Cl)c1 ? < 5.30

What pEC50 value was documented for this molecule, Cc1cnc(C(=O)N(Cc2cc(=O)[nH]c3ccccc23)c2ccccc2)cn1 ? ≥ 5.30

What pEC50 value was documented for this molecule, COc1ccc(N(Cc2cc(=O)[nH]c3c(F)c(F)ccc23)C(=O)c2scnc2C)cc1Cl ? ≥ 5.30

What pEC50 value was documented for this molecule, Cc1c(-c2nc3ccccc3n2Cc2cc(=O)[nH]c3c(F)c(F)ccc23)ncn1C ? < 5.30

What pEC50 value was documented for this molecule, CN(Cc1cc(=O)[nH]c2ccccc12)C(=O)c1ccco1 ? ≥ 5.30

What pEC50 value was documented for this molecule, Cc1ncsc1C(=O)N(Cc1cc(=O)[nH]c2c(F)cccc12)c1ccccc1 ? ≥ 5.30

What pEC50 value was documented for this molecule, COc1ccc(N(Cc2cc(=O)[nH]c3ccccc23)C(=O)c2ccco2)cc1 ? ≥ 5.30

What pEC50 value was documented for this molecule, Cc1ncsc1C(=O)N(Cc1cc(=O)[nH]c2c(F)c(F)ccc12)c1ccc(F)c(Cl)c1 ? ≥ 5.30

----------
- System: human iNOS (Homo sapiens)
- Assay explanation: DAN assay of nitric oxide production (hiNOS)
- Assay setup: enzyme expressed in HEK293 cells transiently transfected with human iNOS
Observable: EC50

Below, each entry is followed by its recorded EC50 result.
- CC(C)CCc1nc2ccccc2n1Cc1cc(=O)[nH]c2c(F)c(F)ccc12: ≤ 5 µM
- CCC(C)Cc1nc2ccccc2n1Cc1cc(=O)[nH]c2c(F)c(F)ccc12 (racemic): ≤ 5 µM
- Cc1ncccc1C(=O)N(Cc1cc(=O)[nH]c2ccccc12)c1ccccc1: ≤ 5 µM
- O=c1cc(Cn2c(-c3cccnc3)nc3ccccc32)c2cccc(F)c2[nH]1: > 5 µM
- CC(C)C(=O)N(Cc1cc(=O)[nH]c2ccccc12)c1ccccc1: > 5 µM
- Cc1ncsc1C(=O)N(Cc1cc(=O)[nH]c2c(F)c(F)ccc12)c1ccccc1: ≤ 5 µM
- O=c1cc(Cn2c(CC3CCCC3)nc3ccccc32)c2ccc(F)c(F)c2[nH]1: ≤ 5 µM

Moving on to another compound below.
What EC50 value was documented for this compound, Cc1nc(S(=O)(=O)N(Cc2cc(=O)[nH]c3c(F)c(F)ccc23)c2cccc(Cl)c2)cn1C ? ≤ 5 µM

----------
- System: human iNOS (Homo sapiens, UniProt P35228)
- Sequence (P35228 whole entry): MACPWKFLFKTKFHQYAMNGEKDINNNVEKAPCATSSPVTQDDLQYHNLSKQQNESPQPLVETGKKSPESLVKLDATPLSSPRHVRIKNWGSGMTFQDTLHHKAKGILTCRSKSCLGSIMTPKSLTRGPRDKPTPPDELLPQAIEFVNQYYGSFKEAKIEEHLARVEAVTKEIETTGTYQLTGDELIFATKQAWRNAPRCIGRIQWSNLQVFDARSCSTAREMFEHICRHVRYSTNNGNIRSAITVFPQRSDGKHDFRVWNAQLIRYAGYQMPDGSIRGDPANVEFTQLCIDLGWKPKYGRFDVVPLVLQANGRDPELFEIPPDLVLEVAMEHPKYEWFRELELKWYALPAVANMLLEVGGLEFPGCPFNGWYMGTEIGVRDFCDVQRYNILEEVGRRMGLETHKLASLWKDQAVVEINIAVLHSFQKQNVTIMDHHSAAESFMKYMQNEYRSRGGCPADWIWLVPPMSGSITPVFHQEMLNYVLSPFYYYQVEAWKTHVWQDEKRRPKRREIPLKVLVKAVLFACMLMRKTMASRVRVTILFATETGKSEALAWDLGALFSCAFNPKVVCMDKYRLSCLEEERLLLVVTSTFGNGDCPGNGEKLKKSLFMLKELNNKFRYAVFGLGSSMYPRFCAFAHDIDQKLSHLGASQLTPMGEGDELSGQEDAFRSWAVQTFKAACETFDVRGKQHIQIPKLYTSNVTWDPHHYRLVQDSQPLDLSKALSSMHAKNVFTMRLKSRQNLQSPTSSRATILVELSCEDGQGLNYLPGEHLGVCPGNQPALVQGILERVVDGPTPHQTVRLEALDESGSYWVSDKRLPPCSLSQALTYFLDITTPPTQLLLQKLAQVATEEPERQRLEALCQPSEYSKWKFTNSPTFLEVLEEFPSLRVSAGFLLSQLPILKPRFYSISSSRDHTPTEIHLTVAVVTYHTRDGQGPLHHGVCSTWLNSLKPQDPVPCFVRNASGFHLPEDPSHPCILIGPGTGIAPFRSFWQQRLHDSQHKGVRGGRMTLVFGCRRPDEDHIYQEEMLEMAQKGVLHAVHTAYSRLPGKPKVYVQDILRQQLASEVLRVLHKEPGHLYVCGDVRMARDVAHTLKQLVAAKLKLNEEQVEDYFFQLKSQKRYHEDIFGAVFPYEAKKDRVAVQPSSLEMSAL
- Assay explanation: DAN assay of nitric oxide production (hiNOS)
- Assay setup: enzyme expressed in HEK293 cells transiently transfected with human iNOS
pEC50: −log10 of the molar value.
Observable: pEC50

- O=C(c1ccco1)N(Cc1cc(=O)[nH]c2ccccc12)c1ccc(Cl)cc1: < 5.30
- Cc1ncsc1C(=O)N(Cc1cc(=O)[nH]c2ccccc12)c1cccc(C(F)(F)F)c1: < 5.30
- O=C(c1cscn1)N(Cc1cc(=O)[nH]c2ccccc12)c1ccccc1: < 5.30
- COc1cccc(C(=O)N(Cc2cc(=O)[nH]c3c(F)cccc23)c2cccc(Cl)c2)c1: < 5.30
- CCc1nc2ccccc2n1Cc1cc(=O)[nH]c2c(F)c(F)ccc12: ≥ 5.30
- O=c1cc(Cn2c(C3CCC3)nc3ccccc32)c2ccc(F)c(F)c2[nH]1: ≥ 5.30
- Cc1ncsc1C(=O)N(Cc1cc(=O)[nH]c2c(F)cccc12)c1cccc(Cl)c1F: ≥ 5.30

Moving on to another compound below.
What pEC50 value was documented for this compound, Cc1ncsc1C(=O)N(Cc1cc(=O)[nH]c2c(F)c(F)ccc12)c1ccc(C#N)c(Cl)c1 ? ≥ 5.30

----------
Collected pEC50 values appear next to each entry.
- System: human iNOS (Homo sapiens, UniProt P35228)
- Assay explanation: DAN assay of nitric oxide production (hiNOS)
- Assay setup: enzyme expressed in HEK293 cells transiently transfected with human iNOS
- Excerpt: The source of nitric oxide synthase (NOS) enzyme can be generated in several ways including induction of endogenous iNOS using cytokines and/or lipopolysaccharide (LPS) in various cell types known in the art. […] The level of nitrate or nitrite in the specimen can be quantified by any method known in the art which provides adequate sensitivity and reproducibility. […]
pEC50: −log10 of the molar value.

Below, each entry is followed by its recorded pEC50 result.
* CC(C)N(Cc1cc(=O)[nH]c2ccccc12)C(=O)c1ccco1 [Example 9] | ≥ 5.30
* CC1CCCCN1c1nc2ccccc2n1Cc1cc(=O)[nH]c2c(F)c(F)ccc12 (racemic) [Example 206] | ≥ 5.30
* O=C(c1ccc2ncccc2c1)N(Cc1cc(=O)[nH]c2c(F)cccc12)c1cccc(Cl)c1 [Example 84] | < 5.30

Moving on to another compound below.
What pEC50 value was documented for this compound, Cc1noc(C)c1C(=O)N(Cc1cc(=O)[nH]c2ccccc12)c1ccccc1 [Example 30] ? < 5.30
